Tested on: MOLT-4 leukemia
Experiment: NCI tumour cell line growth inhibition, 48 h
quantity: TGI

Some entries whose results are on file:
COc1ccc(NC2CC(C)N(C(=O)c3ccccc3)O2)cc1 (stereo not given): > 10 µM
O=C1OC(c2ccccc2)=N/C1=C\c1cccc(F)c1: 67.9 µM

Which measured TGI value corresponds to `C=CCn1c(-c2ccc(-c3cs/c(=N\N=O)n3CC=C)cc2)cs/c1=N\N=O` ?
> 100 µM

Now the compound CC(=O)C1=CCC2c3[nH]c4ccccc4c3CCN2C1 (stereo not given)
> 100 µM

Now the compound `CCOC(=O)C1=C(Nc2ccc(Cl)c(Cl)c2)OC/C1=N\NS(=O)(=O)c1ccc(C)cc1`
> 100 µM

Now the compound CC1=CC(=O)N(c2c(C)cccc2Cl)C(C)N1 (stereo not given)
> 100 µM

Now the compound `COC(=O)[C@@H](C)C[C@H](Cc1ccccc1)NC(=O)c1csc([C@@H](C[C@H](C(C)C)N(C)C(=O)[C@H](C)NC(=O)[C@H]2CCCCN2C)OC(C)=O)n1`
> 25 µM

Now the compound `O=C1NC2(CCN(CCCC3(c4ccc(F)cc4)OCCO3)CC2)Oc2ccccc21`
> 100 µM

Now the compound `O=C1c2ccccc2C(=O)c2oc(Br)cc21`
4.27 µM

Now the compound `Cc1ccccc1-n1c(C)nc(-c2ccccc2)cc1=O`
> 100 µM

----------
Reported TGI values for a set of compounds
Test system: PC-3 prostate
Assay: NCI tumour cell line growth inhibition, 48 h
State the answer as a number, implicitly in µM.

N#Cc1c(N2CCOCC2)[nH]c(=O)c(C(c2c(Cl)cccc2Cl)c2c(O)c(C#N)c(N3CCOCC3)[nH]c2=O)c1O: 37.7
C=CCN1CN(c2ccccc2)C2(CCN(CCCC3(c4ccc(F)cc4)OCCO3)CC2)C1=O: 31.7

# input for lookup
Which measured TGI value corresponds to O=C1OC(OCC#CCOC2OC(=O)C(Cl)=C2Cl)C(Cl)=C1Cl (stereo not given) ?
27.1

----------
Tested on: MDA-N
Assay: NCI tumour cell line growth inhibition, 48 h
Reported TGI values for a set of compounds

CCN(CC)CCN(C(=O)c1ccc(F)cc1)c1ccccc1N: > 10 µM
CCOC(=O)/C(C#N)=C/c1ccc2c(c1)CC1(C2)Cc2cc(CC)c(C(C)O)cc2C1 (centres undefined): 5.16 µM
CC1=C(C(=O)OC(C)C)C(c2ccccc2C(F)(F)F)C(C(=O)OC(CO[N+](=O)[O-])CO[N+](=O)[O-])=C(C)N1 (centres undefined): 21.9 µM
COc1ccc(NC2CC(C)N(C(=O)c3ccccc3)O2)cc1 (centres undefined): > 10 µM
CC(C)C(NC(=O)C(Cc1ccccc1)NC(=O)[C@H]1CCC[C@H]1NC(=O)C(N)Cc1ccc(O)cc1)C(N)=O (some centres undefined): > 100 µM

Which measured TGI value corresponds to `CN1C(Cl)=NS(=O)(=O)c2ccccc21` ?
> 100 µM

Now the compound `O=C1Oc2cc3c(c4cccc1c24)O[C@H](c1ccccc1)[C@@H](c1ccccc1)[C@@H]3c1ccc(Cl)cc1`
> 100 µM

Now the compound `N#CCCN(CCN(CCC#N)C(=O)Nc1ccccc1)C(=O)Nc1ccccc1`
> 100 µM

Now the compound `O=C1c2ccccc2C(=O)c2oc(Br)cc21`
0.267 µM

Now the compound CC(C)C(NCc1c(O)ccc2c(-c3ccccc3)cc(=O)oc12)C(=O)O (centres undefined)
> 100 µM

Now the compound `NCCSCCc1ccccc1`
> 100 µM

----------
System: CAKI-1 renal
Assay: NCI tumour cell line growth inhibition, 48 h
quantity: TGI (µM)
State the answer as a number, implicitly in µM.

CO[C@H]1CC(c2ccc[nH]2)=N[C@]12O[C@@H](C)C[C@@H]1CCCCCCCc3ccc([nH]3)[C@H]12: 11.3

Any idea what TGI came out for `C/C(=N\NC(=S)NCc1ccccc1)c1nc2ncccc2[nH]1` on CAKI-1 renal?
61.2

Now the compound `CN(/N=N/c1nc(OCc2ccccc2)c2[nH]cnc2n1)C(=O)Oc1ccc([N+](=O)[O-])cc1`
35.4

Now the compound `COc1ccc2nc(NC(=O)c3cccnc3Nc3cc(OC)c(OC)c(OC)c3)sc2c1`
42.5

Now the compound `CCN(CC)CCSCCCNc1c2ccc(Cl)cc2nc2ccc(OC)cc12`
3.45

Now the compound O=C1C=CC(O)C2C1CC13SSC4(CC5C(=O)C=CC(O)C5N4C1=O)C(=O)N23 (configuration not stated)
0.957

Now the compound `c1ccc(CNc2nc(Nc3ccccc3)nc3ccccc23)cc1`
5.18

Now the compound COc1cc(C2C(Cl)C(=O)N2NC(=O)c2ccc(NC(C)=O)cc2OC)ccc1O (configuration not stated)
94

Now the compound `N#Cc1c(N2CCOCC2)[nH]c(=O)c(C(c2c(Cl)cccc2Cl)c2c(O)c(C#N)c(N3CCOCC3)[nH]c2=O)c1O`
33.2

Now the compound `CC(C)COC(=O)c1ccc2[nH]c(O)c(C=Nc3ccc(S(N)(=O)=O)cc3)c2c1`
16.7

----------
System: COLO 205 colon
quantity: GI50

Some entries whose results are on file:
COc1cc2c3c(n(CCCN=[N+]=[N-])c(=O)c2cc1OC)-c1ccc(N(C)C)cc1C3=O: > 100000 nM
COc1ccc(Nc2cc(C)nc(N3CCN(c4ccnc5cc(Cl)ccc45)CC3)n2)cc1: 1960 nM
COc1ccc(C2=CC(c3ccc(OC)c(OC)c3)c3c(c4ccccc4oc3=O)O2)cc1OC (centres undefined): 2040 nM
COc1ccc2nc(NC(=O)c3cccnc3Nc3cc(OC)c(OC)c(OC)c3)sc2c1: 17400 nM

Any idea what GI50 came out for `CC(C)CCN[C@@H]1CCc2cc(O)c(N3CC(=O)NS3(=O)=O)c(F)c2C1` on COLO 205 colon?
> 100000 nM

----------
System: SF-295 CNS
Assay: NCI tumour cell line growth inhibition, 48 h
Reported TGI values for a set of compounds

c1ccc2cc3c(cc2c1)nc1ccccn13: > 100 µM
CC1=NN=C(N)NC1=CC(Sc1ccc(Cl)cc1)c1c(O)ccc2ccccc12 (stereo unspecified): > 57.7 µM
Cc1cc(Cl)ccc1C1OC(=O)c2c1ccc1ccccc21 (stereo unspecified): > 100 µM
C=CCn1c(-c2ccc(-c3cs/c(=N\N=O)n3CC=C)cc2)cs/c1=N\N=O: > 100 µM
CCn1c2ccccc2c2cc(C(O)c3cccc4ncccc34)ccc21 (stereo unspecified): 22.1 µM

Which measured TGI value corresponds to CCOC(=O)C(=O)C(CCC(=O)c1ccc2ccccc2c1O)C(=O)OCC (stereo unspecified) ?
> 100 µM

----------
System: OVCAR-8 ovarian
Assay: NCI tumour cell line growth inhibition, 48 h
Reported TGI values for a set of molecules

Some entries whose results are on file:
COc1ccc2c(c1OC)C(=O)c1cnccc1C2=O: > 100 µM
O=C(O)c1ccccc1NC(=O)C1CCCCC1: > 100 µM
COc1cc2c(cc1OC)C(=O)N(NC1=NCCN1)C2=O: > 100 µM
Cn1c(=O)c(Oc2ccc(F)cc2F)cc2cnc(NCCS(C)(=O)=O)nc21: > 25 µM
NCc1cc(O)c(O)c(O)c1: > 100 µM
CC(=O)ON(C(C)=O)c1ccc(-c2nc3ccccc3s2)cc1C: > 100 µM
CC1(C)[C@H]2Cc3cc(-c4cc5c(cn4)[C@@H]4C[C@H]([C@@H]5[C@@H]5c6cc(-c7cc8c(cn7)[C@@H]7C[C@H](C8)C7(C)C)ncc6[C@@H]6C[C@H]5C6(C)C)C4(C)C)ncc3[C@@H]1C2: > 100 µM
O=c1oc2ccc([N+](=O)[O-])cc2c(Nc2ccc3c(c2)S(=O)(=O)c2ccccc2O3)c1[N+](=O)[O-]: > 100 µM

Any idea what TGI came out for `OC(C/C=N/Nc1ccccc1)(C(F)(F)Cl)C(F)(F)Cl` on OVCAR-8 ovarian?
> 10 µM

Now the molecule `Cc1cc(OCc2nnc3n2N=C(c2ccc(Cl)cc2Cl)CS3)ccc1Cl`
> 100 µM

----------
Reported TGI values for a set of compounds
System: HT29 colon
Experiment: NCI tumour cell line growth inhibition, 48 h

Some entries whose results are on file:
C=C1c2c(Cl)ccc(O)c2C(O)=C2C(=O)[C@]3(O)C(O)=C(C(N)=O)C(=O)[C@@H](N(C)C)[C@@H]3[C@@H](O)[C@H]12: 6.18 µM
O=C(NS(=O)(=O)c1ccccc1)C(Cc1ccccc1)C(Cc1ccccc1)C(=O)NS(=O)(=O)c1ccccc1 (stereo not given): > 100 µM
COc1ccc2nc(NC(=O)C(=O)C(C#N)c3ccc(Cl)c(Cl)c3)sc2c1 (stereo not given): > 100 µM
C=CCn1c(-c2ccc(-c3cs/c(=N\N=O)n3CC=C)cc2)cs/c1=N\N=O: > 100 µM
O=C1C2Nc3ccccc3SC2C(=O)N1c1ccccc1C(F)(F)F (stereo not given): > 100 µM
O=S(=O)(C/C(=N\O)c1ccccc1)c1ccccc1: > 100 µM
COc1cc2oc(=O)ccc2cc1CC=C(C)C: 77.7 µM
O=C1OC(OCC#CCOC2OC(=O)C(Cl)=C2Cl)C(Cl)=C1Cl (stereo not given): 18.1 µM

Which measured TGI value corresponds to `CN(C)Cc1cc(N=Nc2ccc(Cl)cc2)ccc1OC(=O)c1ccccc1` ?
27.5 µM

Now the compound `N#Cc1sc2c(c1O)c(=O)n(-c1ccccc1)c(=S)n2-c1ccccc1`
> 100 µM

Now the compound `Cc1cc(-c2nc3cccc(F)c3s2)ccc1N`
> 100 µM

Now the compound `O=C1Oc2cc3c(c4cccc1c24)O[C@H](c1ccccc1)[C@@H](c1ccccc1)[C@@H]3c1ccc(Cl)cc1`
> 100 µM

Now the compound CCN(CC)CCO/N=C1/C=C2CCC3C(CC[C@@]4(C)C3CC[C@]4(C)O)[C@@]2(C)CC1 (stereo not given in full)
5.35 µM

Now the compound `CC(=O)NNc1nc(C)c(C(=O)NNC(=O)C(=O)Nc2c(C)cccc2C(C)(C)C)s1`
> 100 µM

Now the compound CCCCCCC(/C=N/O)C(C)(O)CCC (stereo not given)
> 100 µM

Now the compound `COC(=O)[C@@H](C)C[C@H](Cc1ccccc1)NC(=O)c1csc([C@@H](C[C@H](C(C)C)N(C)C(=O)[C@H](C)NC(=O)[C@H]2CCCCN2C)OC(C)=O)n1`
> 25 µM

The reported measurements were obtained from PubChem BioAssay (NCI).
